# measurement parameters: human
reported property: Hepatotoxicity (choleostasis)
Give the value as a plain number.

Solved entries (count: 3):
compound	Hepatotoxicity (choleostasis)
CC(C)[C@@H](CC[C@@H](C)[C@H]1CC[C@H]2[C@@H]3[C@H](O)C[C@H]4C[C@@H](NCCCNCCCCN)CC[C@]4(C)[C@H]3CC[C@]12C)OS(=O)(=O)O	1
COc1cc2nc(N3CCN(C(=O)c4ccco4)CC3)nc(N)c2cc1OC	1
Cc1ccc(C(=O)c2ccc(CC(=O)O)n2C)cc1	1

What the record says about COc1cc(C(=O)NS(=O)(=O)c2ccccc2C)ccc1Cc1cn(C)c2ccc(NC(=O)OC3CCCC3)cc12 : Hepatotoxicity (choleostasis) is 0

Record summary for CC1(C)S[C@@H]2[C@H](NC(=O)[C@H](N)c3ccccc3)C(=O)N2[C@H]1C(=O)OCOC(=O)[C@@H]1N2C(=O)C[C@H]2S(=O)(=O)C1(C)C : reported Hepatotoxicity (choleostasis) = 1

Noted for O=P1(NCCCl)OCCCN1CCCl (stereo not given) [IFOSFAMIDE] : its Hepatotoxicity (choleostasis) reads 0

----------
# measurement parameters: human
reported property: Hepatotoxicity (steatosis)
Respond numerically, and do not add a unit to the figure.

As a guide, the following entries are already answered.
molecule	Hepatotoxicity (steatosis)
CSCC[C@H](N)C(=O)O	0
CSc1ccc(C(=O)c2[nH]c(=O)[nH]c2C)cc1	0
CC1CN(c2cc3c(cc2F)c(=O)c(C(=O)O)cn3-c2ccc(F)cc2F)CCN1 (centres undefined)	0
CC(=O)N[C@H]1[C@H]([C@H](O)[C@H](O)CO)OC(C(=O)O)=C[C@@H]1N=C(N)N	0
Nc1ncn([C@@H]2O[C@H](CO)[C@@H](O)[C@H]2O)c(=O)n1	0

Lab note: OC(Cn1cncn1)(Cn1cncn1)c1ccc(F)cc1F gave Hepatotoxicity (steatosis) of 1

Memo: COc1ccc(OC[C@H]2CN(C)CC[C@@H]2c2ccccc2)cc1 , reported Hepatotoxicity (steatosis): 0

Reported Hepatotoxicity (steatosis) for O=C(O)C(=O)O was 0

Memo: CC(C)Cc1ccc(C(C)C(=O)O)cc1 (centres undefined) , reported Hepatotoxicity (steatosis): 1

----------
# measurement parameters: human, serum
Hepatotoxicity (acute) less than 3 is y; Hepatotoxicity (acute) greater than or equal to 3 is n.

Study these solved cases before continuing.
molecule	class label
CC[C@H]1OC(=O)[C@H](C)[C@@H](O[C@H]2C[C@@](C)(OC)[C@@H](O)[C@H](C)O2)[C@H](C)[C@@H](O[C@@H]2O[C@H](C)C[C@H](N(C)C)[C@H]2O)[C@](C)(O)C[C@@H](C)[C@@H]2N[C@@H](COCCOC)O[C@H]([C@H]2C)[C@]1(C)O	y
CC(=O)OCC(=O)[C@@]1(O)CC[C@H]2[C@@H]3CCC4=CC(=O)C=C[C@]4(C)[C@@]3(F)[C@@H](O)C[C@@]21C [ISOFLUPREDONE ACETATE]	y
O=C(OCC(COC(=O)c1cccnc1)(COC(=O)c1cccnc1)COC(=O)c1cccnc1)c1cccnc1	y
COc1ccc(C(=O)N2CCN(c3ccc4c(c3)CCC(=O)N4)CC2)cc1OC	y
Nc1ccc(S(=O)(=O)Nc2ncccn2)cc1	n
OCCN1CCN(CCCN2c3ccccc3Sc3ccc(Cl)cc32)CC1	n

Please determine if CN(C)CCCN1c2ccccc2C(C)(C)c2ccccc21 is below 3 in terms of Hepatotoxicity (acute).
y

A record lists CO[C@@H]1[C@H](OC(=O)/C=C/C=C/C=C/C=C/C(=O)O)CC[C@]2(CO2)[C@H]1[C@@]1(C)O[C@@H]1CC=C(C)C . Is its Hepatotoxicity (acute) below 3?
y

API: query returns whether the molecule falls strictly under 3 in Hepatotoxicity (acute). Query: CCCC(C)(COC(N)=O)COC(N)=O [MEPROBAMATE]
y

----------
Hepatotoxicity (time to onset) overview
# method description: Times to onset, minimal and maximal, observed in the indexed observations. [column 'DELAI' in source]
# measurement parameters: human

The compound identified as Cc1cccc(C)c1NC(=O)C(C)N (configuration not stated) [TOCAINIDE] registered its Hepatotoxicity (time to onset) at 1 month - 2 months

The recorded Hepatotoxicity (time to onset) for entry CC(=O)N[C@H]1[C@H]([C@H](O)[C@H](O)CO)OC(C(=O)O)=C[C@@H]1N=C(N)N equals 8 days

CNC(=C[N+](=O)[O-])NCCSCc1csc(CN(C)C)n1 yielded Hepatotoxicity (time to onset) of 2 weeks

For this compound ( Cc1ccc(S(=O)(=O)NC(=O)NN2CCCCCC2)cc1 [TOLAZAMIDE] ), measured Hepatotoxicity (time to onset) is 3 weeks - 18 months

Hepatotoxicity (time to onset) reading for O=C(O)Cc1cn(-c2ccccc2)nc1-c1ccc(Cl)cc1 : 1 month

# Hepatotoxicity (time to onset) of CCN1CCC[C@H]1CNC(=O)c1c(O)c(Cl)cc(Cl)c1OC [RACLOPRIDE] = 1 week - 2 weeks

The value of Hepatotoxicity (time to onset) measured for the compound CC(=O)O[C@H]1C(=O)[C@@]2(C)[C@H]([C@H](OC(=O)c3ccccc3)[C@]3(O)C[C@H](OC(=O)[C@H](O)[C@@H](NC(=O)c4ccccc4)c4ccccc4)C(C)=C1C3(C)C)[C@]1(OC(C)=O)CO[C@@H]1C[C@@H]2O turned out to be 1 days

----------
# measurement parameters: human, serum, 4383 h
reported property: Hepatotoxicity (chronic liver disease)
Number only, no unit.

compound	Hepatotoxicity (chronic liver disease)
Cc1nnc2n1-c1ccc(Cl)cc1C(c1ccccc1)=NC2	0
CC(C)c1c(C(=O)Nc2ccccc2)c(-c2ccccc2)c(-c2ccc(F)cc2)n1CC[C@@H](O)C[C@@H](O)CC(=O)O	1
CCN(CC)CCCC(C)Nc1c2ccc(Cl)cc2nc2ccc(OC)cc12 (stereo unspecified)	0
CC(C)C(=O)Nc1ccc([N+](=O)[O-])c(C(F)(F)F)c1 [FLUTAMIDE]	0
CC1=C(/C=C/C(C)=C/C=C/C(C)=C/CO)C(C)(C)CCC1	26

Now look at this entry.
Query COc1cc(C(=O)NCc2ccc(OCCN(C)C)cc2)cc(OC)c1OC [TRIMETHOBENZAMIDE] yields Hepatotoxicity (chronic liver disease) of 0

----------
# measurement parameters: human, serum
Criterion: Hepatotoxicity (acute) meeting or surpassing 2. Met: Fulfilled. Not met: Not fulfilled.

molecule	class label
C[C@H]1[C@H](NC(=O)/C(=N\OC(C)(C)C(=O)O)c2csc(N)n2)C(=O)N1S(=O)(=O)O	Not fulfilled

Say whether Cc1ccc(S(=O)(=O)NC(=O)NC2CCCCC2)cc1N [METAHEXAMIDE] shows Hepatotoxicity (acute) of 2 or more.
Fulfilled

Does the molecule Nc1ccn([C@H]2CC[C@@H](CO)O2)c(=O)n1 have recorded Hepatotoxicity (acute) that is 2 or more?
Fulfilled

Threshold query (Hepatotoxicity (acute) >= 2) on CCCNCC(O)COc1ccccc1C(=O)CCc1ccccc1 (centres undefined)
Fulfilled

Reported Hepatotoxicity (acute) reaches at least 2 for NC1CCN(c2nc3c(cc2F)c(=O)c(C(=O)O)cn3-c2ccc(F)cc2F)C1 (centres undefined) ?
Not fulfilled

Identify whether the reported Hepatotoxicity (acute) of the following molecule is 2 or greater: CC(C)(C)NC(=O)[C@H]1CC[C@H]2[C@@H]3CC[C@H]4NC(=O)C=C[C@]4(C)[C@H]3CC[C@]12C [FINASTERIDE]
Not fulfilled

----------
# measurement parameters: human
reported property: Hepatotoxicity (severe hepatitis)
Just the number.

Worked cases, answers included:
molecule	recorded measurement
Nc1c(CC(=O)O)cccc1C(=O)c1ccc(Br)cc1 [BROMFENAC]	7
CO/N=C(\C(=O)N[C@@H]1C(=O)N2C(C(=O)[O-])=C(C[N+]34CCC(C(N)=O)(CC3)CC4)CS[C@H]12)c1nsc(N)n1 [CEFCLIDIN]	1
CC(C)NCC(O)c1ccc(NS(C)(=O)=O)cc1 (stereo not given) [SOTALOL]	0
Cc1ccc2c(-c3ccccc3)nc(=O)n(C(C)C)c2c1 [PROQUAZONE]	0
Fc1ccc([C@@H]2CCNC[C@H]2COc2ccc3c(c2)OCO3)cc1 [PAROXETINE]	1
CC(C)NNC(=O)c1ccncc1 [IPRONIAZID]	18
O=C(O)Cn1c(=O)n(Cc2ccc(Br)cc2F)c(=O)c2ccc(Cl)cc21 [ZENARESTAT]	0
COc1cc(/C=C/C(=O)O)ccc1O [FERULATE]	0
O=C(O[C@@H]1C[C@@H]2C[C@H]3C[C@H](C1)N2CC3=O)c1c[nH]c2ccccc12 [DOLASETRON]	0
Oc1ncnc2[nH]ncc12 [ALLOPURINOL]	12

Documented Hepatotoxicity (severe hepatitis) of Cc1ccc(C(=O)Nc2ccc(S(=O)(=O)O)c3cc(S(=O)(=O)O)cc(S(=O)(=O)O)c23)cc1NC(=O)c1cccc(NC(=O)Nc2cccc(C(=O)Nc3cc(C(=O)Nc4ccc(S(=O)(=O)O)c5cc(S(=O)(=O)O)cc(S(=O)(=O)O)c45)ccc3C)c2)c1 [SURAMIN] : 1

Lab book: Hepatotoxicity (severe hepatitis) of COCCCC/C(=N\OCCN)c1ccc(C(F)(F)F)cc1 [FLUVOXAMINE] noted as 0

Lab note: measured Hepatotoxicity (severe hepatitis) of CCn1cc(C(=O)O)c(=O)c2cc(F)c(N3CCNCC3)nc21 [ENOXACIN] was 0

Hepatotoxicity (severe hepatitis) measured on CC(NN)c1ccccc1 (stereo not given) [MEBANAZINE] = 0

Reported Hepatotoxicity (severe hepatitis) of O=C(c1ccc(OCCN2CCCCC2)cc1)c1c(-c2ccc(O)cc2)sc2cc(O)ccc12 [RALOXIFENE] : 0

Note to self: Hepatotoxicity (severe hepatitis) recorded for O=c1[nH]c(=O)n([C@@H]2O[C@H](CO)[C@@H](O)[C@@H]2O)cc1/C=C/Br [SORIVUDINE] was 0

The value of Hepatotoxicity (severe hepatitis) measured for the molecule NCc1ccccc1CC(=O)N[C@@H]1C(=O)N2C(C(=O)O)=C(CSc3nnnn3CC(=O)O)CS[C@H]12 [CEFORANIDE] turned out to be 0

The molecule listed as CCC1NC(=O)c2cc(S(N)(=O)=O)c(Cl)cc2N1 (stereo not given) [QUINETHAZONE] shows Hepatotoxicity (severe hepatitis) equal to 0

The reported Hepatotoxicity (severe hepatitis) of the molecule COc1ccc(-c2noc(CC(=O)O)c2-c2ccc(OC)cc2)cc1 [MOFEZOLAC] was 0

get_value(item= O=C(CCCN1CCN(c2ccc(F)cc2)CC1)NC1c2ccccc2CSc2ccccc21 (stereo not given) [MONATEPIL] , readout=Hepatotoxicity (severe hepatitis)) returns 0

Looking up CO/N=C(\C(=O)N[C@@H]1C(=O)N2C(C(=O)O)=C(CSc3nc(=O)c(=O)[nH]n3C)CS[C@H]12)c1csc(N)n1 [CEFTRIAXONE] , I see its Hepatotoxicity (severe hepatitis) listed as 0

// CC(C)c1nc(CN(C)C(=O)N[C@H](C(=O)N[C@@H](Cc2ccccc2)C[C@H](O)[C@H](Cc2ccccc2)NC(=O)OCc2cncs2)C(C)C)cs1 [RITONAVIR] : Hepatotoxicity (severe hepatitis) value = 1

Input Cc1c(OCC(F)(F)F)ccnc1C[S+]([O-])c1nc2ccccc2[nH]1 (stereo not given) [LANSOPRAZOLE] . Output Hepatotoxicity (severe hepatitis): 1

Reported Hepatotoxicity (severe hepatitis) of N[C@@H](Cc1cc(I)c(Oc2cc(I)c(O)c(I)c2)c(I)c1)C(=O)O [LEVOTHYROXINE] : 0

get_value(item= CC(=O)O[C@H]1C[C@@]2(C)[C@@H](C[C@@H](O)[C@H]3[C@@]4(C)CC[C@@H](O)[C@@H](C)[C@@H]4CC[C@@]32C)/C1=C(\CCC=C(C)C)C(=O)O [FUSIDIC ACID] , readout=Hepatotoxicity (severe hepatitis)) returns 0

The recorded Hepatotoxicity (severe hepatitis) for entry CC(C)(Oc1ccc(Cl)cc1)C(=O)OCCOC(=O)c1cccnc1 [ETOFIBRATE] equals 0

Measured Hepatotoxicity (severe hepatitis), CCN(CC)CCCN(c1ccccc1)C1Cc2ccccc2C1 [APRINDINE] : 0

Please fill in: Hepatotoxicity (severe hepatitis) reported for CCOP(=O)(OCC)C(C)NC(=O)N(CCCl)N=O (stereo not given) [FOTEMUSTINE] = 0

Per the record, CC1(C)CC(=O)N(CCCCN2CCN(c3ncccn3)CC2)C(=O)C1 [GEPIRONE] has Hepatotoxicity (severe hepatitis) of 0

For reference, reported Hepatotoxicity (severe hepatitis) for O=C(O)/C=C/C(=O)O [FUMARIC ACID] stands at 0
